Tested on: Frataxin (FXN) mRNA
measurement.description: Effect of HDAC inhibitors on frataxin (FXN) mRNA expression, qRT-PCR in compound-treated iPSC derived neuronal cells
Format: cell-based
details: iPSC, 24 h, read-out: FXN mRNA fold induction, compound concentration of 0.625 μM, 24 h incubation
Structures can show the parent of a compound that is named as a salt.
Listed next: entries and their corresponding fold induction at 0.625 µM.

Worked cases, answers included:
molecule | target.of.assay | fold induction at 0.625 µM
CC(C)(O)CN1C2CCC1CC(Oc1ccc(C(=O)Nc3ccccc3N)cc1)C2 (centres unmarked) [Compound 73, dihydrochloride] | Frataxin (FXN) mRNA | 1 to 2
CC(C)CN1C2CCC1CC(Nc1ccc(C(=O)Nc3ccccc3N)cc1)C2 (centres unmarked) | Frataxin (FXN) mRNA | 2 to 3
Nc1ccccc1NC(=O)c1ccc(NC2CC3CCC(C2)N3)cc1 (centres unmarked) | Frataxin (FXN) mRNA | 1 to 2
CN(c1ccc(C(=O)Nc2ccccc2N)cc1)C1CCN(CC2CC2)CC1 | Frataxin (FXN) mRNA | 2 to 3

Field: next molecule
Value lookup for fold induction at 0.625 µM; key = CC(C)(C)CN1C2CCC1CC(Oc1ccc(C(=O)Nc3ccccc3N)cc1)C2 (centres unmarked) [Compound 74, dihydrochloride]
1 to 2
